assay: Toxicity in mouse; assay type: organism-based; conditions: in vivo
The following molecules are listed with their measured TD50 values.
valueKind: TD50 (mg/kg)

chemicalStructure	valueKind	unitSpec	modifier	reported
CC1(C)NC(=O)N(C(C)(C)C)C1=O	TD50	mg/kg	=	343
CC(=O)N1C(=O)N(C(C)(C)C)C(=O)C1(C)C	TD50	mg/kg	≤	30

From: ChEMBL document CHEMBL3227954
